- measured_target: Dihydrofolate reductase (Mus musculus)
- Sequence (P00375 whole entry): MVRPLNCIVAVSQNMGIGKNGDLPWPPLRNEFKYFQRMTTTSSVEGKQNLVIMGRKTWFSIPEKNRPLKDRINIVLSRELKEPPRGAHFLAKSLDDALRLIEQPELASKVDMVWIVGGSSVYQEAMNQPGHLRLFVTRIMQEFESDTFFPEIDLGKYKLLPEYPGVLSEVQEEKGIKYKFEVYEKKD
- assay_method_text: Inhibitory activity towards dihydrofolate reductase in L1210 murine leukemia cell lines
pIC50: −log10 of the molar value.
measurement_kind: pIC50

                                   compound                         measured_target  readout_value
0  CN(Cc1cnc2nc(N)nc(N)c2n1)c1ccc(C(=O)NC(CCC(=O)NCCCCC(N)C(=O)O)C(=O)O)cc1 (stereo unspecified)  Dihydrofolate reductase (Mus musculus)           7.06

---

The entries below are paired with their reported pIC50.
- Tested on: H35R0.3
- assay_method_text: Growth inhibition of H35R0.3 cell lines
- Assay type: functional, cell-based
- conditions_used: Rattus norvegicus
pIC50: −log10 of the molar value.
measurement_kind: pIC50

>>> print(df.to_string())
                                   compound  readout_value
0  CN(Cc1cnc2nc(N)nc(N)c2n1)c1ccc(C(=O)NC(CCC(=O)NCCCCC(N)C(=O)O)C(=O)O)cc1 (configuration not stated)           5.22
1  CN(Cc1cnc2nc(N)nc(N)c2n1)c1ccc(C(=O)N[C@@H](CCC(=O)O)C(=O)O)cc1 [METHOTREXATE]           5.74
